Data provenance: ChEMBL document CHEMBL1909046

In this section we review reported IC50 values for a set of compounds.
target: 5-hydroxytryptamine receptor 2C (Homo sapiens); test: DRUGMATRIX: Serotonin (5-Hydroxytryptamine) 5-HT2C radioligand binding (ligand: [3H] Mesulergine); assay type: cell membranes, CHO-K1, Membrane; settings: Not Active = under 50% inhibition at 10 µM; read-out: IC50
Sequence (P28335 whole entry): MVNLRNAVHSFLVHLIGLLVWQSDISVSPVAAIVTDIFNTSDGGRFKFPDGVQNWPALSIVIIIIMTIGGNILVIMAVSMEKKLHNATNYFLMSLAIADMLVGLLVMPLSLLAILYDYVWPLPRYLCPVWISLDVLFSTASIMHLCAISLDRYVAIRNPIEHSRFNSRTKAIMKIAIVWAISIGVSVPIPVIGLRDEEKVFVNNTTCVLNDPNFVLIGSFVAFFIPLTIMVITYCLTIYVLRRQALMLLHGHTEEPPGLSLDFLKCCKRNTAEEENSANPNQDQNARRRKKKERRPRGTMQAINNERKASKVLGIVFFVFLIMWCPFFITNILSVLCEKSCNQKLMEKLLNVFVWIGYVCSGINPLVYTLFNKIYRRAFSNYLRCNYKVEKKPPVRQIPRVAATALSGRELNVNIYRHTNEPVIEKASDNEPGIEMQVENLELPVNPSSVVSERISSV
Give the quantity in nM, number only.

Query: Send back 5-hydroxytryptamine receptor 2C (Homo sapiens) IC50 of N=C(N)N/N=C/c1c(Cl)cccc1Cl [GUANABENZ] only.
Reply: 204

Next:
Query: Send back 5-hydroxytryptamine receptor 2C (Homo sapiens) IC50 of C[C@@H]1C[C@H]2[C@@H]3CCC4=CC(=O)C=C[C@]4(C)C3=CC[C@]2(C)[C@H]1C(=O)CN1CCN(c2cc(N3CCCC3)nc(N3CCCC3)n2)CC1 [TIRILAZAD] only.
Reply: 718

Query: Send back 5-hydroxytryptamine receptor 2C (Homo sapiens) IC50 of COc1cc(N)nc2[nH]c(-c3ccc(F)cc3)c(-c3ccncc3)c12 only.
Reply: 1240

Query: Send back 5-hydroxytryptamine receptor 2C (Homo sapiens) IC50 of CC[C@@H](CO)NC(=O)[C@@H]1C=C2c3cccc4c3c(cn4C)C[C@H]2N(C)C1 [METHYSERGIDE] only.
Reply: 2.09

Query: Send back 5-hydroxytryptamine receptor 2C (Homo sapiens) IC50 of CN1C[C@H](C(=O)N[C@]2(C)O[C@@]3(O)[C@@H]4CCCN4C(=O)[C@H](Cc4ccccc4)N3C2=O)C[C@@H]2c3cccc4[nH]cc(c34)C[C@H]21 [DIHYDROERGOTAMINE] only.
Reply: 90

Query: Send back 5-hydroxytryptamine receptor 2C (Homo sapiens) IC50 of CC(C)C[C@H]1C(=O)N2CCC[C@H]2[C@]2(O)O[C@](NC(=O)[C@@H]3C=C4c5cccc6[nH]c(Br)c(c56)C[C@H]4N(C)C3)(C(C)C)C(=O)N12 [BROMOCRIPTINE] only.
Reply: 532
